// provenance: patent US11427558B1

Molecular target: Recombinant wild type LRRK2 protein (Homo sapiens (Human))
Test: LRRK2 kinase activity, LanthaScreen TR-FRET assay (wild type)
Settings: LRRKtide 400 nM, 25 μM ATP, 60 min; read-out: LRRK2 WT IC50
Protocol: LRRK2 kinase activity was measured using a LanthaScreen™ Kinase Activity Assay from ThermoFisher Scientific. Recombinant wild type or G2019S-LRRK2 protein (Life Technologies, PR8604B or PV4881, respectively), was incubated with a fluorescein-labeled peptide substrate called LRRKtide that is based upon ezrin/radixin/moesin (ERM) (Life Technologies, PV4901) in the presence of ATP and serially diluted compound. […]
pIC50: −log10 of the molar value.
For each entry below, report its pIC50 value.

Sample answers from the record:
Cc1c(C#N)cnc(C(=O)Nc2ccc3[nH]nc(-c4cnoc4)c3c2)c1C [Example 168]
> 7.00
Cc1nc(C(=O)Nc2ccc3[nH]nc(-c4cnco4)c3c2)c(C)c(C)c1C#N [Example 202]
> 7.00
Cc1cc(C#N)cnc1C(=O)Nc1ccc2[nH]nc(-c3ccsc3)c2c1 [Example 73]
6.00 to 7.00
COc1c(C#N)cnc(C(=O)Nc2ccc3[nH]nc(-c4cnoc4)c3c2)c1C [Example 226]
> 7.00
Cc1c(C#N)cnc(C(=O)Nc2ccc3[nH]nc(/C=C/C4CC4)c3c2)c1C [Example 233]
> 7.00

Would you mind giving pIC50 for every molecule in the list below?
1. Cc1ccc(C#N)c(F)c1C(=O)Nc1ccc2[nH]nc(-c3ccoc3)c2c1 [Example 128]
2. Cc1cc(C#N)cc(C(=O)Nc2ccc3[nH]nc(-c4ccoc4)c3c2)n1 [Example 78]
3. Cc1c(C(=O)Nc2ccc3[nH]nc(C(C)C)c3c2)nc(Cl)c(C#N)c1C [Example 270]

> 7.00
6.00 to 7.00
> 7.00

---

For each entry below, report its IC50 value.
biological target: Recombinant G2019S-LRRK2 protein (Homo sapiens (Human), UniProt Q5S007, G2019S); assay: LRRK2 kinase activity, LanthaScreen TR-FRET assay (G2019S); details: LRRKtide 400 nM, 25 μM ATP, 60 min
Sequence (Q5S007 whole entry G2019S): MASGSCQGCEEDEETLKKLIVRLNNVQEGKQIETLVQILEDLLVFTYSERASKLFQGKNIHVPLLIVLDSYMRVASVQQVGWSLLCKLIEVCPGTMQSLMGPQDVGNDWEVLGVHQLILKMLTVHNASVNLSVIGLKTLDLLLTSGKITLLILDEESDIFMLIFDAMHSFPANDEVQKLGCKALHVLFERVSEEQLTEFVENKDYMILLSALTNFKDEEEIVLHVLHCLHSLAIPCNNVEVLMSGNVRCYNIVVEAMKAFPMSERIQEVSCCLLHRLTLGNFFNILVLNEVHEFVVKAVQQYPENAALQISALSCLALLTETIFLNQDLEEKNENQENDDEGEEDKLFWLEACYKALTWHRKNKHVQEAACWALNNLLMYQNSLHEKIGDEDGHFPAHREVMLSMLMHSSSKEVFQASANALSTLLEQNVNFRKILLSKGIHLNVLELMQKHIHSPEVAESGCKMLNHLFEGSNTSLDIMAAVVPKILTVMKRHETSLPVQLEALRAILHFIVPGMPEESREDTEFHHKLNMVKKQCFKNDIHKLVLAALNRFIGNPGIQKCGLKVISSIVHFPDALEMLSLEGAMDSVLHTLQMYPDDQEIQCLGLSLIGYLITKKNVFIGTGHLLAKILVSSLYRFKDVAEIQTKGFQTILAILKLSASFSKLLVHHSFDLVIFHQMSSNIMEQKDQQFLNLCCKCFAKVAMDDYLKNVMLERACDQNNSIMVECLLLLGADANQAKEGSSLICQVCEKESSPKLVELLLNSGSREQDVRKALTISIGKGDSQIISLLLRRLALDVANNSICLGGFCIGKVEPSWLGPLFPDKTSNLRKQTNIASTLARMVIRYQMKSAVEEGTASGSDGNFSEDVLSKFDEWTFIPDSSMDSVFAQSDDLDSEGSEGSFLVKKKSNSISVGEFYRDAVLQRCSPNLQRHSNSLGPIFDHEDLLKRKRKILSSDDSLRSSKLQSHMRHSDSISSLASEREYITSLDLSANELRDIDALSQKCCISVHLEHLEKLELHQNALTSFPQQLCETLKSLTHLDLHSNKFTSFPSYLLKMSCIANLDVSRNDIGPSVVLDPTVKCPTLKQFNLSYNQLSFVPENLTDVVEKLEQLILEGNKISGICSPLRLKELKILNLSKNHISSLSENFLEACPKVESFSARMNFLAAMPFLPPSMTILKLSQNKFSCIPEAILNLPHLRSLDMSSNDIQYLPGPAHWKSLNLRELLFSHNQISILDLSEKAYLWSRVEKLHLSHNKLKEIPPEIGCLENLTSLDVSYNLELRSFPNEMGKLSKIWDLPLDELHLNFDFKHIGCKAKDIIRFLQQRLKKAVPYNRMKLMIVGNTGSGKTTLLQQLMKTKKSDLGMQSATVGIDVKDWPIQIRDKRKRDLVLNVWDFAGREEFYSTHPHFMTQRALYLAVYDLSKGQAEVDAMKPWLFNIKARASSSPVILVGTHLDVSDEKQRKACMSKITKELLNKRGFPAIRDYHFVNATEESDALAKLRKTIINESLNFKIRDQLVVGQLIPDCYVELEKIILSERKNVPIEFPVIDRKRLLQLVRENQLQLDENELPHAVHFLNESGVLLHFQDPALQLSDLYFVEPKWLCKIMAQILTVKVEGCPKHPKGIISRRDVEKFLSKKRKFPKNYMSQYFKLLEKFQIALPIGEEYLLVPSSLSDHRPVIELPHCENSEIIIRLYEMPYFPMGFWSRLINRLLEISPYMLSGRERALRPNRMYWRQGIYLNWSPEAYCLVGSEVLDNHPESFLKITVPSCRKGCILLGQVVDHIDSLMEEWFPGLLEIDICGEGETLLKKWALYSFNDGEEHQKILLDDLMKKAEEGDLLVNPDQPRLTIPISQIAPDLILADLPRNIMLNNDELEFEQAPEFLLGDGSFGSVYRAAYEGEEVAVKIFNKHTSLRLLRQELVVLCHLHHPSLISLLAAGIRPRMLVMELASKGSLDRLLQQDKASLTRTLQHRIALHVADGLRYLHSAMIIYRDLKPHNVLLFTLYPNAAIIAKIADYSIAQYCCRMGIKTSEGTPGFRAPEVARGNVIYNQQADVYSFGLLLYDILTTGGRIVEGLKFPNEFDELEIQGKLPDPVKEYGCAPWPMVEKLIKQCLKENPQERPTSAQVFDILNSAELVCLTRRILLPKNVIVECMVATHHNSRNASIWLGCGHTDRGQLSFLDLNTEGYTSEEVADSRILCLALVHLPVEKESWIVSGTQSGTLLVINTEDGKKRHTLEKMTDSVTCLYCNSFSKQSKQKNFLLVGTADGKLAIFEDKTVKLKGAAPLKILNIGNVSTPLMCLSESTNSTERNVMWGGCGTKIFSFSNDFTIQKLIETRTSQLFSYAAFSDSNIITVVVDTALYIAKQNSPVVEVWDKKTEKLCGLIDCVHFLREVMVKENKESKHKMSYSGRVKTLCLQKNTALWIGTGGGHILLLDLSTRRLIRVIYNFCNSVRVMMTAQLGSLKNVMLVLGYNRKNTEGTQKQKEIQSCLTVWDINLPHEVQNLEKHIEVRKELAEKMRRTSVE

C=Cc1nc(C(=O)Nc2ccc3[nH]nc(C4CC4)c3c2)c(C)c(C)c1C#N [Example 332]
< 0.1 µM
Cc1cc(C#N)cnc1C(=O)Nc1ccc2[nH]nc(N3CC(F)(F)C3)c2c1 [Example 254]
0.1 to 1 µM
C=C(C)c1cc(C#N)cnc1C(=O)Nc1ccc2[nH]nc(C)c2c1 [Example 313]
0.1 to 1 µM

Would you mind giving IC50 for every compound in the list below?
1. Cc1cc(C#N)cnc1C(=O)Nc1ccc2[nH]nc(N3CCC3)c2c1 [Example 253]
2. Cc1cc(C#N)cnc1C(=O)Nc1ccc2[nH]nc(-c3cnsc3)c2c1 [Example 160]
3. Cc1c(C#N)cnc(C(=O)Nc2ccc3[nH]nc(/C=C/c4ccncc4)c3c2)c1C [Example 281]
4. Cc1cc(C#N)cnc1C(=O)Nc1ccc2[nH]nc(-c3ccn(C)n3)c2c1 [Example 153]

1: 0.1 to 1 µM; 2: < 0.1 µM; 3: < 0.1 µM; 4: 0.1 to 1 µM

Would you mind giving IC50 for every compound in the list below?
1. N#Cc1ccc(F)c(C(=O)Nc2ccc3[nH]nc(-c4cnco4)c3c2)c1F [Example 188]
2. Cc1cc(C#N)cnc1C(=O)Nc1ccc2[nH]nc(-c3ccc(C#N)s3)c2c1 [Example 131]
3. COc1cc(C#N)ccc1C(=O)Nc1ccc2[nH]nc(-c3cnco3)c2c1 [Example 200]
4. Cc1cc(C#N)cnc1C(=O)Nc1ccc2[nH]nc(NC(=O)c3ccccc3)c2c1 [Example 135]
5. C=C(C)c1c(C#N)cccc1C(=O)Nc1ccc2[nH]nc(-c3cnco3)c2c1 [Example 214]
6. Cc1c(C#N)cnc(C(=O)Nc2ccc3[nH]nc(C=C4CCNCC4)c3c2)c1C [Example 260]

["< 0.1 µM", "< 0.1 µM", "< 0.1 µM", "0.1 to 1 µM", "< 0.1 µM", "1 to 10 µM"]

---

For each entry below, report its pIC50 value.
target: Recombinant wild type LRRK2 protein (Homo sapiens (Human), UniProt Q5S007); test: LRRK2 kinase activity, LanthaScreen TR-FRET assay (wild type); conditions: LRRKtide 400 nM, 25 μM ATP, 60 min; read-out: LRRK2 WT IC50
Sequence (Q5S007 whole entry): as the sequence (Q5S007 whole entry G2019S) above, with S2019G counted along it
pIC50: −log10 of the molar value.

Sample answers from the record:
Cc1cc(C#N)cnc1C(=O)Nc1cc(C)c2[nH]nc(-c3ccoc3)c2c1 [Example 80]
5.00 to 6.00
Cc1c(C#N)cnc(C(=O)Nc2ccc3[nH]nc(/C=C/c4ccccc4)c3c2)c1C [Example 244]
> 7.00
COc1cc(-c2n[nH]c3ccc(NC(=O)c4ncc(C#N)c(C)c4C)cc23)cc(C)n1 [Example 219]
> 7.00
COc1n[nH]c2ccc(NC(=O)c3ncc(C#N)c(C(F)(F)F)c3C)cc12 [Example 285]
5.00 to 6.00
Cc1c(C#N)cnc(C(=O)Nc2ccc3[nH]nc(C)c3c2)c1C [Example 297]
6.00 to 7.00

Would you mind giving pIC50 for every compound in the list below?
1. Cc1cccc(-c2n[nH]c3ccc(NC(=O)c4ncc(C#N)cc4C)cc23)n1 [Example 112]
2. COc1c(C#N)cccc1C(=O)Nc1ccc2[nH]nc(-c3cnco3)c2c1 [Example 176]
3. CC(C)c1cc(C#N)cnc1C(=O)Nc1ccc2[nH]nc(-c3cnco3)c2c1 [Example 251]
4. Cc1cc(C#N)cnc1C(=O)Nc1ccc2[nH]nc(-c3cc(C#N)cs3)c2c1 [Example 130]
5. Cc1c(C#N)cnc(C(=O)Nc2ccc3[nH]nc(Cl)c3c2)c1C [Example 301]

1. 6.00 to 7.00
2. > 7.00
3. 6.00 to 7.00
4. > 7.00
5. 5.00 to 6.00

Would you mind giving pIC50 for every compound in the list below?
1. Cc1n[nH]c2ccc(NC(=O)c3ncc(C#N)cc3C(C)C)cc12 [Example 294]
2. COc1cc(F)cc(-c2n[nH]c3ccc(NC(=O)c4ncc(C#N)cc4C)cc23)c1 [Example 46]
3. CCc1c(C#N)cccc1C(=O)Nc1ccc2[nH]nc(-c3ccoc3)c2c1 [Example 75]
4. N#Cc1ccnc(C(=O)Nc2ccc3[nH]nc(-c4ccoc4)c3c2)c1Cl [Example 144]

["5.00 to 6.00", "6.00 to 7.00", "> 7.00", "> 7.00"]

---

target: Recombinant wild type LRRK2 protein (Homo sapiens (Human)); experiment: LRRK2 kinase activity, LanthaScreen TR-FRET assay (wild type); details: LRRKtide 400 nM, 25 μM ATP, 60 min; read-out: LRRK2 WT IC50
pIC50: −log10 of the molar value.
VALUE_TYPE: pIC50

Sample answers from the record:
Cc1c(C#N)cnc(C(=O)Nc2ccc3[nH]nc(C=C4COC4)c3c2)c1C [Example 263]
5.00 to 6.00
Cc1cc(-c2n[nH]c3ccc(NC(=O)c4ncc(C#N)cc4C)cc23)ccn1 [Example 74]
> 7.00
Cn1nc(C(=O)Nc2ccc3[nH]nc(-c4ccoc4)c3c2)cc1C#N [Example 97]
6.00 to 7.00
Cc1nc(C(=O)Nc2ccc3[nH]nc(C)c3c2)c(Cl)c(C)c1C#N [Example 275]
6.00 to 7.00
COc1c(C#N)cccc1C(=O)Nc1ccc2[nH]nc(-c3cnn(C(F)F)c3)c2c1 [Example 164]
> 7.00

Would you mind giving pIC50 for every compound in the list below?
1. Cc1cccc(-c2n[nH]c3ccc(NC(=O)c4ncc(C#N)c(C)c4C)cc23)n1 [Example 182]
2. Cc1c(C#N)cnc(C(=O)Nc2ccc3[nH]nc(-c4cnn(C(C)C)c4)c3c2)c1C [Example 217]
3. N#Cc1cncc(C(=O)Nc2ccc3[nH]nc(-c4ccncc4)c3c2)c1 [Example 24]

1: 6.00 to 7.00; 2: > 7.00; 3: 6.00 to 7.00

---

biological target: Recombinant wild type LRRK2 protein (Homo sapiens (Human), UniProt Q5S007); experiment: LRRK2 kinase activity, LanthaScreen TR-FRET assay (wild type); type: biochemical; conditions: LRRKtide 400 nM, 25 μM ATP, 60 min; read-out: LRRK2 WT IC50
VALUE_TYPE: IC50

N#Cc1cc(C(=O)Nc2ccc3[nH]nc(-c4ccncc4)c3c2)ccn1 [Example 22]
< 0.1 µM

Would you mind giving IC50 for every molecule in the list below?
1. CC(C)c1c(C#N)cccc1C(=O)Nc1ccc2[nH]nc(-c3cnco3)c2c1 [Example 225]
2. Cc1cc(C#N)cnc1C(=O)Nc1ncc2[nH]nc(-c3ccoc3)c2n1 [Example 161]
3. COc1cc(C#N)cc(C)c1C(=O)Nc1ccc2[nH]nc(-c3cnn(C(F)F)c3)c2c1 [Example 201]

< 0.1 µM
1 to 10 µM
< 0.1 µM

---

Target: Recombinant G2019S-LRRK2 protein (Homo sapiens (Human), UniProt Q5S007, G2019S)
Test: LRRK2 kinase activity, LanthaScreen TR-FRET assay (G2019S)
Settings: LRRKtide 400 nM, 25 μM ATP, 60 min
Protocol: LRRK2 kinase activity was measured using a LanthaScreen™ Kinase Activity Assay from ThermoFisher Scientific. Recombinant wild type or G2019S-LRRK2 protein (Life Technologies, PR8604B or PV4881, respectively), was incubated with a fluorescein-labeled peptide substrate called LRRKtide that is based upon ezrin/radixin/moesin (ERM) (Life Technologies, PV4901) in the presence of ATP and serially diluted compound. […]
pIC50: −log10 of the molar value.
VALUE_TYPE: pIC50

Sample answers from the record:
COc1c(C#N)cccc1C(=O)Nc1ccc2[nH]nc(-c3cnco3)c2c1 [Example 176]
> 7.00
Cc1cc(C#N)cnc1C(=O)Nc1ccc2[nH]nc(-c3cscn3)c2c1 [Example 156]
6.00 to 7.00
Cc1nc(C(=O)Nc2ccc3[nH]nc(-c4cncs4)c3c2)c(C)c(C)c1C#N [Example 222]
> 7.00
N#Cc1cc(C(=O)Nc2ccc3[nH]nc(-c4ccoc4)c3c2)no1 [Example 82]
> 7.00
Cc1cc(C#N)cnc1C(=O)Nc1ccc2[nH]nc(CCCN3CCCCC3)c2c1 [Example 323]
< 5.00

Would you mind giving pIC50 for every compound in the list below?
1. C=C(C)c1c(C#N)cccc1C(=O)Nc1ccc2[nH]nc(C)c2c1 [Example 274]
2. CCc1c(C(=O)Nc2ccc3[nH]nc(-c4cnco4)c3c2)ccnc1C#N [Example 232]

1. > 7.00
2. > 7.00

Would you mind giving pIC50 for every compound in the list below?
1. Cc1ccc(C#N)c(F)c1C(=O)Nc1ccc2[nH]nc(-c3ccoc3)c2c1 [Example 128]
2. Cc1cc(C#N)ncc1C(=O)Nc1ccc2[nH]nc(-c3ccoc3)c2c1 [Example 49]

> 7.00
> 7.00
